# Test system: Vero cells
# study-conditions: African green monkey

{"columns": ["compound", "tested-on", "% cell viability at 3 μM (%)"],
 "data": [
  ["O=C(NC1CCN(Cc2ccccc2)CC1)C12CC3CC(CC(C3)C1)C2", "Vero cells", 99],
  ["COc1ccc(C(CNC(=O)C23CC4CC(C2)CC(c2ccccc2)(C4)C3)N2CCOCC2)cc1 (stereo not shown)", "Vero cells", 112],
  ["O=C(NC1CCN(Cc2ccccc2)CC1)C12CC3CC(CC(Cl)(C3)C1)C2", "Vero cells", 112],
  ["COc1ccc(N2CCN(CCCNC(=O)C34CC5CC(C3)CC(c3ccccc3)(C5)C4)CC2)cc1", "Vero cells", 75],
  ["CC(C)(CNC(=O)C12CC3CC(C1)CC(c1ccccc1)(C3)C2)N1CCOCC1", "Vero cells", 100],
  ["O=C(NCC(c1cccs1)N1CCOCC1)C12CC3CC(C1)CC(c1ccccc1)(C3)C2 (stereo not shown)", "Vero cells", 103],
  ["CC(C)CN1CCOC(CNC(=O)C23CC4CC(C2)CC(c2ccccc2)(C4)C3)C1 (stereo not shown)", "Vero cells", 100]
]}

---

# System: BDBV mucin-domain-deleted glycoprotein pseudotyped VSV
# method-notes: microbe, parasite or virus in culture
# Assay type: cell-based, Bundibugyo ebolavirus
# study-conditions: Vesicular stomatitis virus, Vero, read-out: EC50 BDBV
pEC50: −log10 of the molar value.

{"columns": ["molecule", "tested-on", "pEC50"],
 "data": [
  ["CC12CC3CC(C(=O)NC4CCNCC4)(C1)CC(c1ccccc1)(C3)C2 (stereo not drawn)", "BDBV mucin-domain-deleted glycoprotein pseudotyped VSV", 6.80],
  ["CN(C)CCNC(=O)C12CC3CC(C)(C1)CC(c1ccccc1)(C3)C2 (stereo not drawn)", "BDBV mucin-domain-deleted glycoprotein pseudotyped VSV", 6.68],
  ["O=C(N1CCN(Cc2ccccc2)CC1)C12CC3CC(C1)CC(c1ccccc1)(C3)C2", "BDBV mucin-domain-deleted glycoprotein pseudotyped VSV", 6.57],
  ["CC12CC3CC(C(=O)NCCN4CCOCC4)(C1)CC(c1ccccc1)(C3)C2 (stereo not drawn)", "BDBV mucin-domain-deleted glycoprotein pseudotyped VSV", 5.70],
  ["N[C@H]1CC[C@H](NC(=O)C2C3CC4CC2CC(c2ccccc2)(C4)C3)CC1 (stereo partly drawn)", "BDBV mucin-domain-deleted glycoprotein pseudotyped VSV", 6.96],
  ["CC1CCN(C[C@H](O)COCC23CC4CC(C2)CC(c2ccccc2)(C4)C3)CC1", "BDBV mucin-domain-deleted glycoprotein pseudotyped VSV", 6.77]
]}

---

# Tested on: EBOV mucin-domain-deleted glycoprotein pseudotyped VSV
# method-notes: microbe, parasite or virus in culture
# Type: cell-based, Zaire ebolavirus
# study-conditions: Zaire ebolavirus, Vero, 24 h, read-out: EC50 EBOV
# maps each entry to its EC50

{"columns": ["compound", "unit", "EC50"],
 "data": [
  ["O=C(NC1CCN(Cc2ccccc2)CC1)C12CC3CC(C1)CC(c1ccccc1)(C3)C2", "µM", 0.44],
  ["O=C(NC1CCN(Cc2ccccc2)CC1)C12CC3CC(CC(C3)C1)C2", "µM", 5.9],
  ["CC12CC3CC(C)(C1)CC(C(=O)NCCN1CCCCC1)(C3)C2", "µM", 50],
  ["c1ccn2c(CN3CCCCC3)c(C34CC5CC(CC(C5)C3)C4)nc2c1", "µM", 8.9],
  ["O=C(NC1CCN(Cc2ccccc2)CC1)C12CC3CC(CC(Cl)(C3)C1)C2", "µM", 3.8],
  ["CN1CCN(CC(O)COc2ccc(C34CC5CC(CC(C5)C3)C4)cc2)CC1 (stereo not drawn)", "µM", 0.15],
  ["OC(COCCC12CC3CC(CC(C3)C1)C2)CN1CCOCC1 (stereo not drawn)", "µM", 3.8],
  ["CC1CCN(CC(O)COCCC23CC4CC(CC(C4)C2)C3)CC1 (stereo not drawn)", "µM", 0.32],
  ["CC1CCN(C[C@H](O)COc2ccc(C34CC5CC(C)(CC(C)(C5)C3)C4)cc2)CC1", "µM", 0.19]
]}

---

# maps each entry to its pEC50
# Test system: EBOV mucin-domain-deleted glycoprotein pseudotyped VSV
# method-notes: microbe, parasite or virus in culture
# Format: cell-based, Zaire ebolavirus
# study-conditions: Zaire ebolavirus, Vero, 24 h, read-out: EC50 EBOV
pEC50: −log10 of the molar value.
property-label: pEC50

{"columns": ["compound", "number"],
 "data": [
  ["CC12CC3CC(C)(C1)CC(c1ccc(OC[C@@H](O)CN4CCCCC4)cc1)(C3)C2", 6.92],
  ["COc1ccc(OCC(O)CNCC23CC4CC(CC(C4)C2)C3)c(C(C)(C)C)c1 (stereo not shown) [Example D2]", 6.17],
  ["CN1CCN(C[C@H](O)COc2ccc(C34CC5CC(CC(C5)C3)C4)cc2)CC1", 6.89],
  ["CC(C)(CNC(=O)C12CC3CC(C1)CC(c1ccccc1)(C3)C2)N1CCOCC1", 6.16]
]}

---

# method-notes: in vitro
# study-conditions: African green monkey, CC50
# maps each entry to its CC50

{"columns": ["compound", "unit", "qualifier-operator", "CC50"],
 "data": [
  ["C[C@H]1C[C@@H](NC(=O)C23CC4CC(C)(C2)CC(c2ccccc2)(C4)C3)CCN1 (some centres unmarked)", "µM", "=", 17.5],
  ["N[C@H]1CC[C@@H](NC(=O)CC2(c3ccccc3)C3CC4CC(C3)CC2C4)CC1 (some centres unmarked)", "µM", "=", 11.3],
  ["CN1CC[C@@H](NC(=O)C23CC4CC(C)(C2)CC(c2ccccc2)(C4)C3)C1 (some centres unmarked)", "µM", "=", 13.6],
  ["CC(C)C12CC3CC(C(=O)N[C@H]4CC[C@H](N)CC4)(CC(c4ccccc4)(C3)C1)C2 (some centres unmarked)", "µM", "=", 35],
  ["CC12CC3CC(C(=O)NC4CCNCC4(F)F)(C1)CC(c1ccccc1)(C3)C2 (centres unmarked)", "µM", "=", 37],
  ["CC1CCN(CCCOc2ccc(C34CC5CC(CC(C5)C3)C4)cc2)CC1", "µM", "=", 7.2],
  ["CN(C)C1CCCN(C(=O)NCC23CC4CC(CC(C4)C2)C3)C1 (centres unmarked)", "µM", ">", 10],
  ["O=C(N1CC2CC1CN2)C12CC3CC(C1)CC(c1ccccc1)(C3)C2 (centres unmarked)", "µM", ">", 10]
]}

---

# System: BDBV mucin-domain-deleted glycoprotein pseudotyped VSV
# method-notes: microbe, parasite or virus in culture
# Assay type: cell-based, Bundibugyo ebolavirus
# study-conditions: Vesicular stomatitis virus, Vero, read-out: EC50 BDBV
pEC50: −log10 of the molar value.
property-label: pEC50

{"columns": ["compound", "property-label", "number"],
 "data": [
  ["N[C@H]1CC[C@H](NC(=O)CC2(c3ccccc3)C3CC4CC(C3)CC2C4)CC1 (some centres unmarked)", "pEC50", 6.60],
  ["c1ccc(C23CC4CC(CC(CNC5CCNCC5)(C4)C2)C3)cc1", "pEC50", 6.70],
  ["CC1CCN(C[C@@H](O)COCC23CC4CC(C2)CC(c2ccccc2)(C4)C3)CC1", "pEC50", 6.96],
  ["NCc1ccc(OCC23CC4CC(C2)CC(c2ccccc2)(C4)C3)cc1", "pEC50", 5.92],
  ["CC12CC3CC(C(=O)NCC4CCNCC4)(C1)CC(c1ccccc1)(C3)C2 (centres unmarked)", "pEC50", 6.01],
  ["COC(=O)c1ccc(COc2ccccc2CN2CCC(NC(=O)CNC(=O)CC34CC5CC(CC(C5)C3)C4)CC2)cc1", "pEC50", 5.59],
  ["Cc1cccc(C23CC4CC(CC(C(=O)N[C@H]5CC[C@H](N)CC5)(C4)C2)C3)c1", "pEC50", 6.74],
  ["c1ccc(C23CC4CC(CC(CNc5ccc(CN6CCCCC6)cn5)(C4)C2)C3)cc1", "pEC50", 6.01]
]}

---

# method-notes: in vitro
# study-conditions: mouse
property-label: fraction unbound

{"columns": ["compound", "property-label", "number"],
 "data": [
  ["CC12CC3CC(C(=O)N[C@H]4CC[C@H](N)CC4)(C1)CC(c1ccccc1)(C3)C2.Cl (stereo partly shown)", "fraction unbound", 0.014]
]}

---

# System: wild-type Sudan Gulu
// assign t if Sudan Gulu SI (CC50/EC50) falls strictly below 200, else f (ties count as f)

{"columns": ["molecule", "assigned-label"],
 "data": [
  ["c1ccc(C23CC4CC(CC(CNC5CCNCC5)(C4)C2)C3)cc1 [Example C2]", "t"],
  ["O=C(NC1CCNCC1)C1C2CC3CC1CC(c1ccccc1)(C3)C2 (centres unmarked) [Example A81]", "f"],
  ["CCC12CC3CC(C(=O)NC4CCNCC4)(C1)CC(c1ccccc1)(C3)C2 (centres unmarked) [Example A80]", "t"],
  ["CCC12CC3CC(C(=O)N[C@H]4CC[C@H](N)CC4)(C1)CC(c1ccccc1)(C3)C2 (some centres unmarked) [Example A85]", "t"]
]}
